Cited source for all entries: patent US8841312B2

Field: IC50. Provide a value for each of the molecules that follow.
molecular target: Cdk4/CyclinD1 (Homo sapiens (Human)); assay: Cdk4 kinase inhibition assay with recombinant Cdk4/CyclinD1, Rb substrate, [33P]-ATP filter plate; conditions: 25 μM ATP, read-out: Cdk 4 IC50
Sequence (P11802 whole entry): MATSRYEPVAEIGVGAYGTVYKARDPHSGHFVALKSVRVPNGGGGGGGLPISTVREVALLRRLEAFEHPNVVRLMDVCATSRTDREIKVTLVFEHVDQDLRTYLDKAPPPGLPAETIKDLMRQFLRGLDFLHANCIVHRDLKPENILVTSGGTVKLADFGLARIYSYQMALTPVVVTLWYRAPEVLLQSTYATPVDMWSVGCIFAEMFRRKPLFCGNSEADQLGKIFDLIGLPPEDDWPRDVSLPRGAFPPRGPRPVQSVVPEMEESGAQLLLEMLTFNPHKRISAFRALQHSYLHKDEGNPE
Sequence (P24385 whole entry partner): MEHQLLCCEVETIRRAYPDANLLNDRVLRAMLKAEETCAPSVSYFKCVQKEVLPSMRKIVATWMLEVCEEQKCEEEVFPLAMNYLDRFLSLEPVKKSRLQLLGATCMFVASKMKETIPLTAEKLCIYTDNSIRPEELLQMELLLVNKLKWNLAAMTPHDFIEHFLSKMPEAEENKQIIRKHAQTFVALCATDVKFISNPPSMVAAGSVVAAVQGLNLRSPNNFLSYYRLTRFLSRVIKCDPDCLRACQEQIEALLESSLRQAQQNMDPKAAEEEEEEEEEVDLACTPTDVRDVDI
Express the result in nM but write the number alone.

Query block: Consider the molecule `CN(C)C1CCN(c2ccc(Nc3ncc4c5ccncc5n(C5CCSCC5)c4n3)nc2)CC1` and give its measured IC50.
Result block: 96

Query block: Consider the molecule `C[C@H]1CN(c2ccc(Nc3ncc4c5cc[nH]c(=O)c5n(C5CCCC5)c4n3)nn2)CCN1` and give its measured IC50.
Result block: 16

Query block: Consider the molecule c1cc2c3cnc(Nc4ccc(NCC5CCNC5)nn4)nc3n(C3CCCC3)c2cn1 (centres unmarked) and give its measured IC50.
Result block: 2.5

Query block: Consider the molecule `c1ccc(-n2c3cnccc3c3cnc(Nc4ccc(N5CCNCC5)cn4)nc32)cc1` and give its measured IC50.
Result block: 2.2

Query block: Consider the molecule `c1cc2c3cnc(Nc4ccc(N5CCNC6(CCC6)C5)nn4)nc3n(C3CCCC3)c2cn1` and give its measured IC50.
Result block: 70

Query block: Consider the molecule `NCC1CCN(c2ccc(Nc3ncc4c5ccncc5n(C5CCCC5)c4n3)nc2)CC1` and give its measured IC50.
Result block: 4

Query block: Consider the molecule `O[C@@H]1CCCN(c2ccc(Nc3ncc4c5ccncc5n(C5CCCC5)c4n3)nn2)C1` and give its measured IC50.
Result block: 3.3

Query block: Consider the molecule `CN(C)C1CCN(C(=O)Cc2ccc(Nc3ncc4c5ccncc5n(C5CCCC5)c4n3)nc2)CC1` and give its measured IC50.
Result block: 7
